Reported IC50 values, Serine/threonine-protein phosphatase 5 (Homo sapiens) (UniProt P53041).

Reference set, count: 2
# structure_smiles, measured
measured = [
    ("O=C(O)c1n[nH]nc1-c1ccccc1O", "7.74 µM"),
    ("COc1cccc(-c2n[nH]nc2C(=O)O)c1", "10.9 µM"),
]

# lookup: "COc1ccccc1-c1n[nH]nc1C(=O)O" on Serine/threonine-protein phosphatase 5 (Homo sapiens) (UniProt P53041), IC50 = 6 µM

Item: "O=C(O)c1n[nH]nc1-c1cccc(F)c1" | System: Serine/threonine-protein phosphatase 5 (Homo sapiens) (UniProt P53041) | IC50: 17.8 µM

Case "COc1ccc(-c2n[nH]nc2C(=O)O)cc1" , Serine/threonine-protein phosphatase 5 (Homo sapiens) (UniProt P53041), IC50 recorded as 23.1 µM

Reported Serine/threonine-protein phosphatase 5 (Homo sapiens) (UniProt P53041) IC50 for item "O=C(O)c1n[nH]nc1-c1ccc(F)cc1" was 24.1 µM

Log: Serine/threonine-protein phosphatase 5 (Homo sapiens) (UniProt P53041), compound "O=C(O)c1n[nH]nc1-c1ccccc1F" , IC50 = 7.75 µM
